- ASSAY SUMMARY: Cytotoxicity against mouse J774.1 cells incubated for 24 hrs by alamar blue assay
- Assay type: cell-based
- APPLIED CONDITIONS: read-out: TC50
PROPERTY: CC50 at 24 h (µM)
Kindly answer with a numeric value in µM, unit omitted.

CC50 at 24 h for `CC(=O)/C=C/CCCN1C(=O)CN=C(c2ccccc2)c2ccccc21` ?
31.8
